# Assayed target: OCT2 (Homo sapiens, UniProt O15244)
# Sequence (O15244 whole entry): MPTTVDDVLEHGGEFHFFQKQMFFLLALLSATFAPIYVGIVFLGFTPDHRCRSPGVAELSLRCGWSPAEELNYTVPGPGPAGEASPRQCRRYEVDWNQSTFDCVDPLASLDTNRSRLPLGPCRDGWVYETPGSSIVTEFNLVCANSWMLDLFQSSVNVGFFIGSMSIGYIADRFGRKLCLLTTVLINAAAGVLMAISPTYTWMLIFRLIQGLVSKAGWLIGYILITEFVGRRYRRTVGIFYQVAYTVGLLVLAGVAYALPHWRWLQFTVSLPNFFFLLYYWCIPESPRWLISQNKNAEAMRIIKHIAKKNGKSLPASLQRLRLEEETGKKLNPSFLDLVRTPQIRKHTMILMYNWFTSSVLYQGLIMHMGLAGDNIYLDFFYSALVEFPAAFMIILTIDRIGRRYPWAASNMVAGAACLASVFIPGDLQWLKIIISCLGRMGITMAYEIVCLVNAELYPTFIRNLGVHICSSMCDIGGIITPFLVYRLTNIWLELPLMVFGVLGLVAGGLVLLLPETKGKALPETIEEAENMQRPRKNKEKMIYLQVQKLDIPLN
# Method notes: OCT2-mediated methyl-4-phenylpyridinium uptake in HEK293-OCT2 cells
Reported property: IC50

Prompt: Recorded IC50 for CCCCCn1nc(C(=O)N[C@H](C(N)=O)C(C)C)c2ccccc21 , please?
Response: > 250 µM

----------
# Assayed target: UGT1A3 (Homo sapiens, UniProt P35503)
# Sequence (P35503 29-534): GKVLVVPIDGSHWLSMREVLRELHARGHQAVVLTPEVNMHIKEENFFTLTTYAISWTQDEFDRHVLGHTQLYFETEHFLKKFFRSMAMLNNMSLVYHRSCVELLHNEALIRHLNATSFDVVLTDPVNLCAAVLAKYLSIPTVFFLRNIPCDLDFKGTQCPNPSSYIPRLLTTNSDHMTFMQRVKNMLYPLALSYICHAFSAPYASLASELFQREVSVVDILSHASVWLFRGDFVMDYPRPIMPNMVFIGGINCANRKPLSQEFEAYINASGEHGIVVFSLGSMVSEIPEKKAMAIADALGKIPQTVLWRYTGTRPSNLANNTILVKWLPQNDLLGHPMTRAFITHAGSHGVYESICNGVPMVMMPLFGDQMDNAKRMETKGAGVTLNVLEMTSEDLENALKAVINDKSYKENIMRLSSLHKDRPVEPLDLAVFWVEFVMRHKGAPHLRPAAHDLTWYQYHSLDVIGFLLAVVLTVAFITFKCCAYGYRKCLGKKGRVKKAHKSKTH
Reported property: pIC50
Answers are plain numbers, as −log10 of the molar value.

Prompt: Sample CCCCCn1nc(C(=O)N[C@H](C(N)=O)C(C)C)c2ccccc21 — what was its pIC50?
Response: 4.08

----------
# Assayed target: CYP1A2 (Homo sapiens, UniProt P05177)
# Sequence (P05177 whole entry): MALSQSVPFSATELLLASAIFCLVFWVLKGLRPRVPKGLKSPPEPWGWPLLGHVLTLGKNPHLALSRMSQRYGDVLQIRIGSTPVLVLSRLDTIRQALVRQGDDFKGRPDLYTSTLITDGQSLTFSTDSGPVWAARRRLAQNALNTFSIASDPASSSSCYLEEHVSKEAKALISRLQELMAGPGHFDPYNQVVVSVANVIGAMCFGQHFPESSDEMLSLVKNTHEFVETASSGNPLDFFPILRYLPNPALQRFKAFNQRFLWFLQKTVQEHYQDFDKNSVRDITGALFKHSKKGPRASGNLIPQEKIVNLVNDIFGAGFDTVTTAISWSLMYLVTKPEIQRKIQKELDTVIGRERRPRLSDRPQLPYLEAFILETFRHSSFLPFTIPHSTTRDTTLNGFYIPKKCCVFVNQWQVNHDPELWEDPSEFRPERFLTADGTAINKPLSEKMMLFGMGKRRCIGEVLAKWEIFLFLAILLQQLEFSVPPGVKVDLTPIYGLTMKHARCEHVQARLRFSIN
# Method notes: CYP1A2 phenacetin O-deethylase inhibition in ultrapooled human liver microsomes
# Run parameters: read-out: IC50 With NADPH Preincubation, CYP1A2 phenacetin O-deethylase; ultrapooled human liver microsomes, 30-min preincubation with NADPH
Reported property: IC50

Prompt: Value lookup for IC50; key = CCCCCn1nc(C(=O)N[C@H](C(N)=O)C(C)C)c2ccccc21 [AB-PINACA]
Response: > 100 µM

----------
# Assayed target: CYP2B6 (Homo sapiens, UniProt P20813)
# Sequence (P20813 1-491): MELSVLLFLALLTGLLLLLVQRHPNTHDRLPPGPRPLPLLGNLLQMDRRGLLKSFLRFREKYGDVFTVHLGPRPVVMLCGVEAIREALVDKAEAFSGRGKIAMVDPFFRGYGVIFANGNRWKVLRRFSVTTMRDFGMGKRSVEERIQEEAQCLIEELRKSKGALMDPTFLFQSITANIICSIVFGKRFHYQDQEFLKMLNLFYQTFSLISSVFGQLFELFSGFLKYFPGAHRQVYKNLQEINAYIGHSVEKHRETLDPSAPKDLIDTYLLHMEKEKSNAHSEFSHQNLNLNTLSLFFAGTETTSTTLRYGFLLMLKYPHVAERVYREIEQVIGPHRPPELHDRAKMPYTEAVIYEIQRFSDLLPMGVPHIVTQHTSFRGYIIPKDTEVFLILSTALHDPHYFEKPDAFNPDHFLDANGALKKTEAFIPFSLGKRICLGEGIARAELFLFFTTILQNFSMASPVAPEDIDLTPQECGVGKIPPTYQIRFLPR
# Method notes: CYP2B6 bupropion hydroxylase inhibition in ultrapooled human liver microsomes
Reported property: IC50

Prompt: Consider the compound shown here: CCCCCn1nc(C(=O)N[C@H](C(N)=O)C(C)C)c2ccccc21 What is its recorded IC50?
Response: > 100 µM

----------
# Assayed target: OCT1 (Homo sapiens, UniProt O15245)
# Sequence (O15245 1-554): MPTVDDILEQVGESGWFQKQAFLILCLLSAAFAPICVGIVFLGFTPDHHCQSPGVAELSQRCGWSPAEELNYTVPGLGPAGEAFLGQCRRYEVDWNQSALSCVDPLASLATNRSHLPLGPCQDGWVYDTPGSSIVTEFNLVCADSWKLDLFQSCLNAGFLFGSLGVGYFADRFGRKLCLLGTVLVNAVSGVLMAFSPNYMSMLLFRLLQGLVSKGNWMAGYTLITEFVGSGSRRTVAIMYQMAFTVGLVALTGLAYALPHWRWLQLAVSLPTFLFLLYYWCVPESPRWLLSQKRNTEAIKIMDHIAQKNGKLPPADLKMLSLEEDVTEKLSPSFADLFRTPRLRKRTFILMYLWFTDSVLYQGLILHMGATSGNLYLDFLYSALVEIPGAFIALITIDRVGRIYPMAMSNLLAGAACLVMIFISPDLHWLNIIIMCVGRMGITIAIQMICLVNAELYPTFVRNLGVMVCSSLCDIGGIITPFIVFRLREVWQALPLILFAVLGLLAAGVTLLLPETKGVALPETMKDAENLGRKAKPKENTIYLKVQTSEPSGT
# Method notes: OCT1-mediated methyl-4-phenylpyridinium uptake in HEK293-OCT1 cells
Reported property: Ki (µM)
Numbers only, in µM.

Prompt: What value of measured Ki is listed for CCCCCn1nc(C(=O)N[C@H](C(N)=O)C(C)C)c2ccccc21 ?
Response: 146

----------
# Assayed target: CYP2C9 (Homo sapiens)
# Sequence (P11712 whole entry): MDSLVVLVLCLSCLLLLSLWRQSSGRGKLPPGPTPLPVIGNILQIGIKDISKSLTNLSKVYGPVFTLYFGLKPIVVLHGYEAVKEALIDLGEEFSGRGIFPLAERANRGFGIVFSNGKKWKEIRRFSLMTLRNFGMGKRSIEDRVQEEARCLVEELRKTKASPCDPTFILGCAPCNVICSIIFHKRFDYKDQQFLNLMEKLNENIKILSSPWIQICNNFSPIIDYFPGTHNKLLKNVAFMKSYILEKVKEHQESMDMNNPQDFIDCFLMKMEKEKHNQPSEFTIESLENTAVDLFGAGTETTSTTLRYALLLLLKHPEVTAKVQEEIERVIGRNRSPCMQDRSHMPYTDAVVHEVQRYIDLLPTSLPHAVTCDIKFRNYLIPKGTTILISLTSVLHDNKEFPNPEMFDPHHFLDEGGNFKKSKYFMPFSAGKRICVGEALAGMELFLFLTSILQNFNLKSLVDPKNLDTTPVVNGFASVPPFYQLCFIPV
# Method notes: CYP2C9 diclofenac 4'-hydroxylase inhibition in ultrapooled human liver microsomes
# Run parameters: IC50 With NADPH Preincubation, CYP2C9 diclofenac 4'-hydroxylase, ultrapooled human liver microsomes, 30-min preincubation with NADPH
Reported property: pIC50
Answers are plain numbers, as −log10 of the molar value.

Prompt: Would you kindly share the measured pIC50 for CCCCCn1nc(C(=O)N[C@H](C(N)=O)C(C)C)c2ccccc21 ?
Response: 4.71

----------
# Assayed target: UGT1A9 (Homo sapiens, UniProt O60656)
# Sequence (O60656 26-530): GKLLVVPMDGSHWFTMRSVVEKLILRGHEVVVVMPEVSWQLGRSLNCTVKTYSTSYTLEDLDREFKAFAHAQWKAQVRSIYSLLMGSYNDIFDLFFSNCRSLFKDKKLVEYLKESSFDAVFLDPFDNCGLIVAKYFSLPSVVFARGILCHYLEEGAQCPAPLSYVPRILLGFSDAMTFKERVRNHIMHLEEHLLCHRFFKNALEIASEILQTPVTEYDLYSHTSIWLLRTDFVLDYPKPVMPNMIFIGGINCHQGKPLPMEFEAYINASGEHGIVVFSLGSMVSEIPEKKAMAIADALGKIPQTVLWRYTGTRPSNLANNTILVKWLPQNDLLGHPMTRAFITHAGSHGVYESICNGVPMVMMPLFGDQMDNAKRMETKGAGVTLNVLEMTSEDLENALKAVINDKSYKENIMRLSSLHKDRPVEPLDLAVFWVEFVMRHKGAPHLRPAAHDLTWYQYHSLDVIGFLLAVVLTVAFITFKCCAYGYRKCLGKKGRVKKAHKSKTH
Reported property: pIC50
Answers are plain numbers, as −log10 of the molar value.

Prompt: Given the compound CCCCCn1nc(C(=O)N[C@H](C(N)=O)C(C)C)c2ccccc21 , what is its reported pIC50?
Response: 4.19
